Test: In vivo topical administration pharmacokinetics of K173, rabbit (aqueous humor, cornea)
Settings: aqueous humor, topical or ocular, 5 mg/ml, Group 2 (4 doses), topical 5 mg/ml, 4 hr post-last dose, OS, Mean, read-out: K173 Concentrations (ng/mL) in Rabbit Aqueous Humor OS Sample, Mean
Positions of bridges follow the written chain, without caps; N, C: chain ends. Non-standard residues stand in square brackets, D forms with d. Residues, ends and D or L forms follow the SMILES beside them. Triazole bridges read from a SMILES are 1,4-linked. *: point of attachment. Benzoyl(3,5-(OH)2) = O=C(c1cc(O)cc(O)c1)*; Lys(N3) = [N-]=[N+]=NCCCC[C@H](N)C(=O)O; dPhe(4-F) = N[C@H](Cc1ccc(F)cc1)C(=O)O; Nle = CCCC[C@H](N)C(=O)O; Pra = C#CC[C@H](N)C(=O)O

MOLECULE	VALUE_UNIT	level at 4 h
CCCC[C@H](NC(=O)c1cc(O)cc(O)c1)C(=O)N[C@H]1CCCCn2cc(nn2)C[C@@H](C(N)=O)NC(=O)[C@H](Cc2c[nH]c3ccccc23)NC(=O)[C@H](CCCNC(=N)N)NC(=O)[C@@H](Cc2ccc(F)cc2)NC(=O)[C@H](Cc2c[nH]cn2)NC1=O [KR-072] ({Benzoyl(3,5-(OH)2)}-[Nle][Lys(N3)]H[dPhe(4-F)]RW[Pra]-NH2; triazole 2-7)	ng/mL	3.86

---

Assay: In vivo topical administration pharmacokinetics of K173, rabbit (aqueous humor, cornea)
Details: aqueous humor, topical or ocular, 5 mg/ml, Group 3 (8 BID doses), topical 5 mg/ml, 30 Min post-last dose, OD, Mean, read-out: K173 Concentrations (ng/mL) in Rabbit Aqueous Humor OD Sample, Mean
Positions of bridges follow the written chain, without caps; N, C: chain ends. Non-standard residues stand in square brackets, D forms with d. Residues, ends and D or L forms follow the SMILES beside them. Triazole bridges read from a SMILES are 1,4-linked. *: point of attachment. Benzoyl(3,5-(OH)2) = O=C(c1cc(O)cc(O)c1)*; Lys(N3) = [N-]=[N+]=NCCCC[C@H](N)C(=O)O; dPhe(4-F) = N[C@H](Cc1ccc(F)cc1)C(=O)O; Nle = CCCC[C@H](N)C(=O)O; Pra = C#CC[C@H](N)C(=O)O
PARAMETER_MEASURED: level at 0.5 h (ng/mL)

MOLECULE	PARAMETER_MEASURED	VALUE_MEASURED
CCCC[C@H](NC(=O)c1cc(O)cc(O)c1)C(=O)N[C@H]1CCCCn2cc(nn2)C[C@@H](C(N)=O)NC(=O)[C@H](Cc2c[nH]c3ccccc23)NC(=O)[C@H](CCCNC(=N)N)NC(=O)[C@@H](Cc2ccc(F)cc2)NC(=O)[C@H](Cc2c[nH]cn2)NC1=O [KR-072] ({Benzoyl(3,5-(OH)2)}-[Nle][Lys(N3)]H[dPhe(4-F)]RW[Pra]-NH2; triazole 2-7)	level at 0.5 h	10.3

---

Biological target: human recombinant MC1R (Homo sapiens)
Sequence (Q01726 whole entry): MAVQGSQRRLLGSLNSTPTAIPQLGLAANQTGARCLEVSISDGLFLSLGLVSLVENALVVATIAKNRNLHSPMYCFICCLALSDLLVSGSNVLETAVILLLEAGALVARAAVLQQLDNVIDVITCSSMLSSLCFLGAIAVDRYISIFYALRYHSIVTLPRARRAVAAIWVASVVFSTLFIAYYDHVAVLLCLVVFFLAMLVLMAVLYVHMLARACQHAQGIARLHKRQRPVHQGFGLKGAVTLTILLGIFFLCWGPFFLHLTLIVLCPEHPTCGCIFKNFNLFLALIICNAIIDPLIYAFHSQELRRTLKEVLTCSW
Assay: cyclic AMP (cAMP) functional assay, MC1R stable cell line (CHO-K1);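 further: cells with test compound for 60 min at room temperature in buffer containing IBMX, then cAMP quantified by Eu-cAMP tracer and ULight anti-cAMP detection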
Settings: cAMP functional assay
Positions of bridges follow the written chain, without caps; N, C: chain ends. Non-standard residues stand in square brackets, D forms with d. Residues, ends and D or L forms follow the SMILES beside them. Triazole bridges read from a SMILES are 1,4-linked. *: point of attachment. Benzoyl(3,5-(OH)2) = O=C(c1cc(O)cc(O)c1)*; Lys(N3) = [N-]=[N+]=NCCCC[C@H](N)C(=O)O; Phe(4-NH2) = Nc1ccc(C[C@H](N)C(=O)O)cc1; dPhe(4-F) = N[C@H](Cc1ccc(F)cc1)C(=O)O; hArg = N=C(N)NCCCC[C@H](N)C(=O)O; Aad = N[C@@H](CCCC(=O)O)C(=O)O; Nle = CCCC[C@H](N)C(=O)O; Pra = C#CC[C@H](N)C(=O)O

COMPOUND	CENSOR_SYMBOL	IC50 / nM
CSCC[C@H](NC(=O)[C@H](CO)NC(=O)[C@H](Cc1ccc(O)cc1)NC(=O)[C@H](CO)NC(C)=O)C(=O)N[C@@H](CCC(=O)O)C(=O)N[C@@H](Cc1c[nH]cn1)C(=O)N[C@@H](Cc1ccccc1)C(=O)N[C@@H](CCCNC(=N)N)C(=O)N[C@@H](Cc1c[nH]c2ccccc12)C(=O)NCC(=O)N[C@@H](CCCCN)C(=O)N1CCC[C@H]1C(N)=O [KR-005]	=	0.093
CCCC[C@H](NC(C)=O)C(=O)N[C@H]1CCCCn2cc(nn2)C[C@@H](C(=O)N[C@@H](CCCC(N)=O)C(N)=O)NC(=O)[C@H](Cc2c[nH]c3ccccc23)NC(=O)[C@H](CCCNC(=N)N)NC(=O)[C@@H](Cc2ccccc2)NC(=O)[C@H](Cc2c[nH]cn2)NC1=O [KR-057] (Ac-[Nle][Lys(N3)]H[dF]RW[Pra][Aad](NH2)-NH2; triazole 2-7)	=	0.024
CCCC[C@H](NC(=O)c1cc(O)cc(O)c1)C(=O)N[C@H]1CCCCn2cc(nn2)C[C@@H](C(N)=O)NC(=O)[C@H](Cc2c[nH]c3ccccc23)NC(=O)[C@H](CCCNC(=N)N)NC(=O)[C@@H](Cc2ccc(F)cc2)NC(=O)[C@H](Cc2c[nH]cn2)NC1=O [KR-072] ({Benzoyl(3,5-(OH)2)}-[Nle][Lys(N3)]H[dPhe(4-F)]RW[Pra]-NH2; triazole 2-7)	=	0.0019
CSCC[C@H](NC(=O)[C@H](CO)NC(=O)[C@H](Cc1ccc(O)cc1)NC(=O)[C@H](CO)NC(C)=O)C(=O)N[C@@H](CCC(=O)O)C(=O)N[C@@H](Cc1c[nH]cn1)C(=O)N[C@@H](Cc1ccccc1)C(=O)N[C@@H](CCCNC(=N)N)C(=O)N[C@@H](Cc1c[nH]c2ccccc12)C(=O)NCC(=O)N[C@@H](CCCCN)C(N)=O [KR-006]	=	0.11
CCCC[C@H](NC(C)=O)C(=O)N[C@H]1CCCCn2cc(nn2)C[C@@H](C(=O)N[C@@H](CCCCN)C(N)=O)NC(=O)[C@H](Cc2c[nH]c3ccccc23)NC(=O)[C@H](CCCCNC(=N)N)NC(=O)[C@@H](Cc2ccccc2)NC(=O)[C@H](Cc2c[nH]cn2)NC1=O [KR-054] (Ac-[Nle][Lys(N3)]H[dF][hArg]W[Pra]K-NH2; triazole 2-7)	=	0.093
CCCC[C@H](NC(C)=O)C(=O)N[C@H]1CCCCn2cc(nn2)C[C@@H](C(N)=O)NC(=O)[C@H](Cc2c[nH]c3ccccc23)NC(=O)[C@H](CCCNC(=N)N)NC(=O)[C@@H](Cc2ccccc2)NC(=O)[C@H](Cc2ccc(N)cc2)NC1=O [KR-047] (Ac-[Nle][Lys(N3)][Phe(4-NH2)][dF]RW[Pra]-NH2; triazole 2-7)	>	50

---

Target: human recombinant MC5R (Homo sapiens)
Sequence (P33032 whole entry): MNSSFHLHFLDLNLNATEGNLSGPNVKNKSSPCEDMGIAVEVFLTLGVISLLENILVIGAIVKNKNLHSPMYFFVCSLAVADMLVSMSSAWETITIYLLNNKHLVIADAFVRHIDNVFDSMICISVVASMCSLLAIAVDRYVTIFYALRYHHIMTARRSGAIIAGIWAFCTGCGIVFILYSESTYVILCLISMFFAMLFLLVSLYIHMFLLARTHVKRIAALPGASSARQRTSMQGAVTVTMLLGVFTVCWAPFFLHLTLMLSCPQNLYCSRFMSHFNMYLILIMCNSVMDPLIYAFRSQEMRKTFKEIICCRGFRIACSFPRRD
Assay: Ca2+ signalling functional assay, MC5R stable cell line (CHO-K1/Ga15)
Conditions: calcium flux functional assay
Positions of bridges follow the written chain, without caps; N, C: chain ends. Non-standard residues stand in square brackets, D forms with d. Residues, ends and D or L forms follow the SMILES beside them. Triazole bridges read from a SMILES are 1,4-linked. *: point of attachment. Benzoyl(3,5-(OH)2) = O=C(c1cc(O)cc(O)c1)*; Lys(N3) = [N-]=[N+]=NCCCC[C@H](N)C(=O)O; Orn(N3) = [N-]=[N+]=NCCC[C@H](N)C(=O)O; dPhe(4-F) = N[C@H](Cc1ccc(F)cc1)C(=O)O; NMeH = CN[C@@H](Cc1c[nH]cn1)C(=O)O; NMeR = CN[C@@H](CCCNC(=N)N)C(=O)O; R8 = C=CCCCCCC[C@@](C)(N)C(=O)O; Aad = N[C@@H](CCCC(=O)O)C(=O)O; S5 = C=CCCC[C@](C)(N)C(=O)O; Hpra = C#CCC[C@H](N)C(=O)O; Nle = CCCC[C@H](N)C(=O)O; Pra = C#CC[C@H](N)C(=O)O
Measured IC50 values are reported for all entries that follow.

MOLECULE	TARGET_UNDER_TEST	IC50
CC(=O)N[C@H]1CCCCn2cc(nn2)C[C@@H](C(N)=O)NC(=O)CNC(=O)[C@H](Cc2c[nH]c3ccccc23)NC(=O)[C@H](CCCNC(=N)N)NC(=O)[C@H](Cc2ccccc2)NC(=O)[C@H](Cc2c[nH]cn2)NC(=O)[C@H](CCC(=O)O)NC1=O [KR-010] (Ac-[Lys(N3)]EHFRWG[Pra]-NH2; triazole 1-8)	human recombinant MC5R (Homo sapiens)	> 10000 nM
CCCC[C@H](NC(C)=O)C(=O)N[C@H]1CCCn2cc(nn2)CC[C@@H](C(=O)N[C@@H](CCCCN)C(N)=O)NC(=O)[C@H](Cc2c[nH]c3ccccc23)NC(=O)[C@H](CCCNC(=N)N)NC(=O)[C@@H](Cc2ccccc2)NC(=O)[C@H](Cc2c[nH]cn2)NC1=O [KR-068] (Ac-[Nle][Orn(N3)]H[dF]RW[Hpra]K-NH2; triazole 2-7)	human recombinant MC5R (Homo sapiens)	40.3 nM
CCCC[C@H](NC(C)=O)C(=O)N1CCC(=O)NCCN(CC(=O)N[C@@H](Cc2c[nH]c3ccccc23)C(N)=O)C(=O)[C@H](CCCNC(=N)N)NC(=O)[C@@H](Cc2ccccc2)NC(=O)[C@H](Cc2c[nH]cn2)NC(=O)C1	human recombinant MC5R (Homo sapiens)	> 10000 nM
CCCC[C@H](NC(=O)c1cc(O)cc(O)c1)C(=O)N[C@H]1CCCCn2cc(nn2)C[C@@H](C(N)=O)NC(=O)[C@H](Cc2c[nH]c3ccccc23)NC(=O)[C@H](CCCNC(=N)N)NC(=O)[C@@H](Cc2ccccc2)NC(=O)[C@H](Cc2c[nH]cn2)NC1=O [KR-073] ({Benzoyl(3,5-(OH)2)}-[Nle][Lys(N3)]H[dF]RW[Pra]-NH2; triazole 2-7)	human recombinant MC5R (Homo sapiens)	134 nM
CC(=O)N[C@@H](CCC(=O)O)C(=O)N[C@@H](Cc1c[nH]cn1)C(=O)N[C@@H](Cc1ccccc1)C(=O)N[C@@H](CCCNC(=N)N)C(=O)N[C@@H](Cc1c[nH]c2ccccc12)C(=O)NCC(=O)N[C@@H](CCCCN)C(=O)N1CCC[C@H]1C(=O)N[C@H](C(N)=O)C(C)C	human recombinant MC5R (Homo sapiens)	> 10000 nM
CCCC[C@H](NC(=O)c1cc(O)cc(O)c1)C(=O)N[C@H]1CCCCn2cc(nn2)C[C@@H](C(=O)N[C@@H](CCCC(N)=O)C(N)=O)NC(=O)[C@H](Cc2c[nH]c3ccccc23)NC(=O)[C@H](CCCNC(=N)N)NC(=O)[C@@H](Cc2ccc(F)cc2)NC(=O)[C@H](Cc2c[nH]cn2)NC1=O [KR-071] ({Benzoyl(3,5-(OH)2)}-[Nle][Lys(N3)]H[dPhe(4-F)]RW[Pra][Aad](NH2)-NH2; triazole 2-7)	human recombinant MC5R (Homo sapiens)	73.9 nM
CC(=O)N[C@]1(C)CCCCCCC=CCCC[C@@](C)(C(N)=O)NC(=O)CNC(=O)[C@H](Cc2c[nH]c3ccccc23)NC(=O)[C@H](CCCNC(=N)N)NC(=O)[C@H](Cc2ccccc2)NC(=O)[C@H](Cc2c[nH]cn2)NC(=O)[C@H](CCC(=O)O)NC1=O [KR-015, Ac-R8-Glu-His-Phe-Arg-Trp-Gly-S5-NH2] (Ac-[R8]EHFRWG[S5]-NH2; staple 1-8)	human recombinant MC5R (Homo sapiens)	> 10000 nM
CCCC[C@H](NC(C)=O)C(=O)N[C@H]1CCCCn2cc(nn2)C[C@@H](C(=O)N[C@@H](CCCCN)C(N)=O)NC(=O)[C@H](Cc2c[nH]c3ccccc23)NC(=O)[C@H](CCCNC(=N)N)NC(=O)[C@@H](Cc2ccc(OC)cc2)NC(=O)[C@H](Cc2c[nH]cn2)NC1=O [KR-058] (Ac-[Nle][Lys(N3)]H[dY](Me)RW[Pra]K-NH2; triazole 2-7)	human recombinant MC5R (Homo sapiens)	195 nM
CCCC[C@H](NC(C)=O)C(=O)N[C@H]1CCCCn2cc(nn2)C[C@@H](C(N)=O)NC(=O)[C@H](Cc2c[nH]c3ccccc23)NC(=O)[C@H](CCCNC(=N)N)NC(=O)[C@H](Cc2ccccc2)NC(=O)[C@H](Cc2c[nH]cn2)NC1=O [KR-008, Ac-Nle-[Lys(N3)-His-Phe-Arg-Trp-Pra]-NH2] (Ac-[Nle][Lys(N3)]HFRW[Pra]-NH2; triazole 2-7)	human recombinant MC5R (Homo sapiens)	> 10000 nM
CCCC[C@H](NC(C)=O)C(=O)N[C@H]1CCCCn2cc(nn2)C[C@@H](C(N)=O)NC(=O)[C@H](Cc2c[nH]c3ccccc23)NC(=O)[C@H](CCCNC(=N)N)N(C)C(=O)[C@@H](Cc2ccccc2)NC(=O)[C@H](Cc2c[nH]cn2)N(C)C1=O [KR-052] (Ac-[Nle][Lys(N3)][NMeH][dF][NMeR]W[Pra]-NH2; triazole 2-7)	human recombinant MC5R (Homo sapiens)	195 nM
CCCC[C@H](NC(C)=O)C(=O)N[C@H]1CCCCn2cc(nn2)C[C@@H](C(N)=O)NC(=O)[C@H](Cc2c[nH]c3ccccc23)NC(=O)[C@H](CCCNC(=N)N)NC(=O)[C@@H](Cc2ccc(F)cc2)NC(=O)[C@H](Cc2c[nH]cn2)NC1=O [KR-049] (Ac-[Nle][Lys(N3)]H[dPhe(4-F)]RW[Pra]-NH2; triazole 2-7)	human recombinant MC5R (Homo sapiens)	25.2 nM
CCCC[C@H](NC(=O)c1cc(O)cc(O)c1)C(=O)N[C@H]1CCCCn2cc(nn2)C[C@@H](C(N)=O)NC(=O)[C@H](Cc2c[nH]c3ccccc23)NC(=O)[C@H](CCCNC(=N)N)NC(=O)[C@@H](Cc2ccc(F)cc2)NC(=O)[C@H](Cc2c[nH]cn2)NC1=O [KR-072] ({Benzoyl(3,5-(OH)2)}-[Nle][Lys(N3)]H[dPhe(4-F)]RW[Pra]-NH2; triazole 2-7)	human recombinant MC5R (Homo sapiens)	78 nM
CCCC[C@H](NC(C)=O)C(=O)N[C@H]1CCCCn2cc(nn2)C[C@@H](C(N)=O)NC(=O)[C@H](Cc2c[nH]c3ccccc23)NC(=O)[C@H](CCCNC(=N)N)NC(=O)[C@@H](Cc2ccccc2)NC(=O)[C@H](Cc2cnc[nH]2)NC1=O [KR-009] (Ac-[Nle][Lys(N3)]H[dF]RW[Pra]-NH2; triazole 2-7)	human recombinant MC5R (Homo sapiens)	140 nM
